Target chain: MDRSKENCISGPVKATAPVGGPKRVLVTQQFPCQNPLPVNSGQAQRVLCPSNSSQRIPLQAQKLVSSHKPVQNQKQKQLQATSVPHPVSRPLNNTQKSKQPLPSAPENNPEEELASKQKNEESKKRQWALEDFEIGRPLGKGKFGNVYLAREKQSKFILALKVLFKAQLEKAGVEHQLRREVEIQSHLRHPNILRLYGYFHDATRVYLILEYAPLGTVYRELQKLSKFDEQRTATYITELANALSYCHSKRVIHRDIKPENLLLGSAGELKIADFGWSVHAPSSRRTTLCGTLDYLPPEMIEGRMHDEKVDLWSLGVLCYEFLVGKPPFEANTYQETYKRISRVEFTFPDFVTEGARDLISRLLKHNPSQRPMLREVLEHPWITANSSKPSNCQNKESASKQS
readout.name: IC50

sample.smiles	IC50
CC[C@@H](Nc1nc(NCc2cccnc2)c2ncn(C(C)C)c2n1)C(C)(C)O	51 nM
CC[C@H](Nc1nc(NCc2cccnc2)c2ncn(C(C)C)c2n1)[C@@H](C)O	652 nM
CC[C@H](Nc1nc(NCc2cccnc2)c2ncn(C(C)C)c2n1)C(C)(C)O	> 10000 nM

Endpoint output: IC50 of Cc1nc(C)c(-c2ccnc(Nc3ccc(N(C)C)cc3)n2)s1 . Value?
38 nM

Again, but for Cc1c(-c2ccnc(Nc3ccc(N4CCNCC4)cc3)n2)sc(=O)n1C
> 10000 nM
